Tested on: HOP-92 NSCLC
Assay: NCI tumour cell line growth inhibition, 48 h
measurement.kind: TGI

Use these answered entries as a reference point.
compound="CC(=O)N(C(=O)CC(=O)N1N=C(c2ccccc2)C(N=Nc2ccccc2[N+](=O)[O-])C1=O)c1ccc(Cl)cc1 (stereo not drawn)" measurement_kind=TGI measurement="> 10 µM"
compound=CC1=Nc2ccccc2OC(C)=C1N=Nc1ccc2nc(C)[nH]c2c1 measurement_kind=TGI measurement="> 100 µM"

IN: Request the reported TGI associated with Nn1c(-c2ccccc2)n[nH]c1=O
OUT: > 100 µM

IN: Request the reported TGI associated with O=S(=O)(c1ccccc1)N1CCN(S(=O)(=O)c2ccccc2)c2ccccc21
OUT: > 100 µM
